system: L1210 leukemia ip in BDF1 mice, survival T/C; test: NCI In Vivo Anticancer Drug Screen. Data for tumor model L1210 Leukemia (intraperitoneal) in B6D2F1 (BDF1) mice; conditions: endpoint: mean survival time; dose: 100.0 mg/kg/injection; schedule: Q04DX003 (ip); vehicle: saline with Tween-80; higher = longer survival
Inconclusive results and toxic doses are left out.
Provide the recorded T/C for the entries that follow.

query: Fill blank: measured T/C of the compound CCOC(=O)c1sc(NC(C)=O)c(C(=O)OCC)c1C is ____.
result: 98 % of control

query: I'd like to know its T/C. The compound in question is CCCC(O)(CC)CCC
result: 100 % of control

query: State the recorded T/C for this entry: C(=N\n1cnnc1)/c1ccccc1/C=N/n1cnnc1
result: 103 % of control

query: # input compound: O=C(O)c1cc(O)ccc1O ; wanted: its T/C
result: 100 % of control

query: Tell me the measured T/C of O=C(/C=C/c1ccc([N+](=O)[O-])cc1)c1ccc(Cl)cc1 , please.
result: 104 % of control

query: // returns reported T/C for input c1ccc(NCc2ccco2)cc1
result: 106 % of control

query: Param item = Cc1ncc(C#N)c(=O)[nH]1 ; retrieve measured T/C.
result: 90 % of control

query: Give the measured T/C of CC(=O)NS(=O)(=O)c1ccc(NC(=O)c2ccccc2C(=O)O)cc1 .
result: 95 % of control

query: // T/C lookup, key: Cc1c(C)c2c(c(C)c1O)CCC(=O)O2
result: 91 % of control

query: Please look up its T/C: O=C(O)/C=C/C(=O)NNC(=O)/C=C/C(=O)O
result: 98 % of control
